# credit: the supplement of paper PMC7877785

# PROTOCOL_TEXT: self-splicing fitness, log relative to wild type (ln ratio); higher = more splicing; Tetrahymena group I intron in knt gene, E. coli kanamycin selection, DiMSum; sequences stand for … in CUCUCU…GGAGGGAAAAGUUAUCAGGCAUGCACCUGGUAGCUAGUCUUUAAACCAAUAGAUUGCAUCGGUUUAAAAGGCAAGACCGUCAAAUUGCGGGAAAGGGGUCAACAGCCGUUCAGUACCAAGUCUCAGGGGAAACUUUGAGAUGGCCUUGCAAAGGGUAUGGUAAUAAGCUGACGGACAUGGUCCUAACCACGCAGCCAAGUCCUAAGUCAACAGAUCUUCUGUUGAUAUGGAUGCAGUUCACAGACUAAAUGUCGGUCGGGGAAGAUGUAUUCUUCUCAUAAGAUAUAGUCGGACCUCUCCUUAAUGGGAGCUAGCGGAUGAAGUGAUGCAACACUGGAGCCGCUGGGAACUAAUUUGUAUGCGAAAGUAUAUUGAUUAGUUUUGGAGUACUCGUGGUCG;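 also: selection with 25 µg/mL kanamycin versus none on LB agar overnight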
# CONDITION_NOTES: 37 °C
MEASUREMENT_NAME: self-splicing fitness (ln)

- INPUT_SEQUENCE: "GCCAAGCAAUAUUACGGAGU"
  self-splicing fitness (ln): -1.57
- INPUT_SEQUENCE: "ACGCAGCAAUAUUACGGAGU"
  self-splicing fitness (ln): -2.08

Task: // self-splicing fitness (ln) lookup, key: GUCAAGCAAUAUUACGUUGA
Output: -3.51

Task: // self-splicing fitness (ln) lookup, key: CGUUAGCAAUAUUACGUUUC
Output: -2.19

Task: // self-splicing fitness (ln) lookup, key: GUUAAGCAAUAUUACGAGGU
Output: -2.51

Task: // self-splicing fitness (ln) lookup, key: GUACAGCAAUAUUACGUCAC
Output: -2.14

Task: // self-splicing fitness (ln) lookup, key: CACAAGCAAUAUUACGGACC
Output: -1.73

Task: // self-splicing fitness (ln) lookup, key: ACCAAGCAAUAUUACGACUU
Output: -1.85

Task: // self-splicing fitness (ln) lookup, key: UCCAAGCAAUAUUACGGGAG
Output: -2.9

Task: // self-splicing fitness (ln) lookup, key: CCGCAGCAAUAUUACGAGUC
Output: -3.29

Task: // self-splicing fitness (ln) lookup, key: CGACAGCAAUAUUACGGGAU
Output: -2.52

Task: // self-splicing fitness (ln) lookup, key: UAAUAGCAAUAUUACGUCAU
Output: -2.52

Task: // self-splicing fitness (ln) lookup, key: GAAAAGCAAUAUUACGGCUU
Output: 0.0447

Task: // self-splicing fitness (ln) lookup, key: CCCUAGCAAUAUUACGCCGC
Output: -1.96

Task: // self-splicing fitness (ln) lookup, key: AAAUAGCAAUAUUACGCGCU
Output: -0.606

Task: // self-splicing fitness (ln) lookup, key: CUUUAGCAAUAUUACGUUAC
Output: -1.74

----------
# PROTOCOL_TEXT: self-splicing fitness, log relative to wild type (ln ratio); higher = more splicing; Tetrahymena group I intron in knt gene, E. coli kanamycin selection, DiMSum; sequences stand for … in CUCUCU…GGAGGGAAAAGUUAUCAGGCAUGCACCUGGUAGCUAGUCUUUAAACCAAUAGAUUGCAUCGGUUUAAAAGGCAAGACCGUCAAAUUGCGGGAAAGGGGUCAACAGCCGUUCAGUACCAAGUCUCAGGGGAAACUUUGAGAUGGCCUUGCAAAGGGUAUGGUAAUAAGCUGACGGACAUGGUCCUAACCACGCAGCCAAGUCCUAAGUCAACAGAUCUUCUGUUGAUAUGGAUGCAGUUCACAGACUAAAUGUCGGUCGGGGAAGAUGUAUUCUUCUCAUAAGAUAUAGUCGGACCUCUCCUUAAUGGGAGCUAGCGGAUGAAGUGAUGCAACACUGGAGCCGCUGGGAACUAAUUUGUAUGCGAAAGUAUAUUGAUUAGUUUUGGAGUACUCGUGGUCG
# CONDITION_NOTES: 37 °C
Measured self-splicing fitness (ln) by item
Write no unit; give the number alone.

Below: 3 sequences and their reported self-splicing fitness (ln).
- INPUT_SEQUENCE: "UCGCAGCAAUAUUACGAGAG"
  self-splicing fitness (ln): -2.39
- INPUT_SEQUENCE: "GCCCAGCAAUAUUACGCCUU"
  self-splicing fitness (ln): 0.189
- INPUT_SEQUENCE: "AACGAGCAAUAUUACGUUUA"
  self-splicing fitness (ln): -2.64

Task: // self-splicing fitness (ln) lookup, key: UAGAAGCAAUAUUACGCGUG
Output: -0.211

Task: // self-splicing fitness (ln) lookup, key: GCAUAGCAAUAUUACGGCUG
Output: -1.22

Task: // self-splicing fitness (ln) lookup, key: AGAAAGCAAUAUUACGGCAC
Output: -0.727

----------
# PROTOCOL_TEXT: self-splicing fitness, log relative to wild type (ln ratio); higher = more splicing; Tetrahymena group I intron in knt gene, E. coli kanamycin selection, DiMSum; sequences stand for … in CUCUCU…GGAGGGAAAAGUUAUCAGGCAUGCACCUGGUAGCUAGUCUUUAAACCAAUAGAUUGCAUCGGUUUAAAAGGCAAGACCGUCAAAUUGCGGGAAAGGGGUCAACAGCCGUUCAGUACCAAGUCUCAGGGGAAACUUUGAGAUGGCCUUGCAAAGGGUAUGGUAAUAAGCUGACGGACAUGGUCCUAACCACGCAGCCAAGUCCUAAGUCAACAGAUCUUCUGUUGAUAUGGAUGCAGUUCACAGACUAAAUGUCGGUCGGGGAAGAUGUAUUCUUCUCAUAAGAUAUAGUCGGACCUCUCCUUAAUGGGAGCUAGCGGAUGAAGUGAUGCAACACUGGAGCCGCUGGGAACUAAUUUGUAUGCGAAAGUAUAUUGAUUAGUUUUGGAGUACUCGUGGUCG
# CONDITION_NOTES: 30 °C
MEASUREMENT_NAME: self-splicing fitness (ln)
Write no unit; give the number alone.

- INPUT_SEQUENCE: "AAACAGCAAUAUUACGAAAA"
  ASSAY_RESULT: -2.95
- INPUT_SEQUENCE: "UGGGAGCAAUAUUACGGGCU"
  ASSAY_RESULT: -1.78
- INPUT_SEQUENCE: "UUAGAGCAAUAUUACGUCAU"
  ASSAY_RESULT: -3.46
- INPUT_SEQUENCE: "AGCGAGCAAUAUUACGAUCU"
  ASSAY_RESULT: -0.233
- INPUT_SEQUENCE: "AUACAGCAAUAUUACGCAGG"
  ASSAY_RESULT: -2.78

Okay, next one:
Task: // self-splicing fitness (ln) lookup, key: ACCGAGCAAUAUUACGACAU
Output: -2.22

----------
Measured self-splicing fitness (ln) by item
# PROTOCOL_TEXT: self-splicing fitness, log relative to wild type (ln ratio); higher = more splicing; Tetrahymena group I intron in knt gene, E. coli kanamycin selection, DiMSum; sequences stand for … in CUCUCU…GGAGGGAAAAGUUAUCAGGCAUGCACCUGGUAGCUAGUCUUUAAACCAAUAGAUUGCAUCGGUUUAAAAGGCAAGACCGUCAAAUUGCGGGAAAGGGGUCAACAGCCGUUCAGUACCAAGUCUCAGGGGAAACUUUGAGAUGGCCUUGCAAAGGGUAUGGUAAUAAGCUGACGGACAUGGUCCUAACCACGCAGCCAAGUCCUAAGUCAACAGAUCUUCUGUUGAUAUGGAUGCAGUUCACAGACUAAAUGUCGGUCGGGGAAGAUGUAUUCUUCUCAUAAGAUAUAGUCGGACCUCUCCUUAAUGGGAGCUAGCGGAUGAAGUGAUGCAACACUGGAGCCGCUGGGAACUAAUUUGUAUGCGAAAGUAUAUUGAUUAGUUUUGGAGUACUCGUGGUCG
# CONDITION_NOTES: 37 °C

Below: 6 sequences and their reported self-splicing fitness (ln).
- INPUT_SEQUENCE: "CGAAAGCAAUAUUACGACAU"
  ASSAY_RESULT: -1.41
- INPUT_SEQUENCE: "GUAAAGCAAUAUUACGACGC"
  ASSAY_RESULT: 0.0941
- INPUT_SEQUENCE: "GACGAGCAAUAUUACGAGGU"
  ASSAY_RESULT: -2.38
- INPUT_SEQUENCE: "UAACAGCAAUAUUACGAACG"
  ASSAY_RESULT: 0.172
- INPUT_SEQUENCE: "CUUCAGCAAUAUUACGUAAA"
  ASSAY_RESULT: -2.12
- INPUT_SEQUENCE: "UAGAAGCAAUAUUACGGCAC"
  ASSAY_RESULT: -1.89

Task: // self-splicing fitness (ln) lookup, key: CCGAAGCAAUAUUACGUAGU
Output: -3.21

Task: // self-splicing fitness (ln) lookup, key: ACGAAGCAAUAUUACGUCGA
Output: -1.65
